Taken from patent US11413278B2.

- Test system: WI-38 cells
- procedure details: MMS resistance assay
- Format: cell-based, human
- cond: Homo sapiens, 12 h; Exp. 1, WI-38 cells, 10 uM, normalized ATP measurement; read-out: Exp. 1, under MMS stress treatment, at 10 uM (fold change)
quantity measured: fold induction at 10 µM

Take a look at these entries with their results.
* COc1ccc(C(=O)/C=C/c2cccc(Cl)c2)c(OC)c1 | 1.24
* COc1ccc(C(=O)/C=C/c2ccc(F)cc2)c(OC)c1 | 0.95
* O=C(Nc1nc(C23CC4CC(CC(C4)C2)C3)cs1)C(c1ccccc1)c1ccccc1 | 1.08
* Cc1ccc(NC(=O)c2ccc([N+](=O)[O-])o2)cc1C | 0.74
* Oc1ncnc2sc3c(c12)CCC3 | 0.84
* CCc1ccc(Oc2nc3ccccn3c(=O)c2/C=C(\C#N)C(=O)NCc2ccco2)cc1 | 1.13

The recorded fold induction at 10 µM for `O=C(Nc1cccc(C(F)(F)F)c1)c1ccc([N+](=O)[O-])o1` is 0.72

# fold induction at 10 µM (compound: `O=C(/C=C/c1cn(-c2ccccc2)nc1-c1cccnc1)c1ccccc1` ) is 2.12

The reported value for `CCc1ccc(Oc2nc3ccccn3c(=O)c2/C=C(\C#N)C(=O)NC2CCCCC2)cc1` in terms of fold induction at 10 µM is 0.83
